Task for the reader: assign each of the following binders its reported Kd.
- experimentalSystem: YBX3 CSD (human, UniProt P16989 82-174)
- Sequence (P16989 82-174): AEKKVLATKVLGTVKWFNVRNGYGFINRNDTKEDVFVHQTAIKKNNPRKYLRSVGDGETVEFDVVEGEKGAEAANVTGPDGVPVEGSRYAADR
- experimentDescription: BLI
One number for each entry, in nM.

>>> print(df.to_string())
                                     binder  numericvalue
0  GGAGGCCACCUCUCCAAGGGCUUCU (structured_RNA, none) [FURIN-25nt]          87.5

--- query ---
Challenge: Which measured Kd value corresponds to GGAGGCCACCUCUCCAAGGGCUUCU (structured_RNA, m5C at position 12 (NSUN6-methylated)) [FURIN-25nt-m5C] ?
Response given: 45
